target: IKZF2 (Helios) (Homo sapiens); construct: Leu-Asp junction (codons ctcgac before the linker); mScarlet (behind P2A) (C, cleaved yes); expressed in transfected cells; experiment: IKZF2 reporter degradation assay (HEK 293T IKZF2-mNeonGreen reporter cell line); format: cell-based; conditions: HEK 293T IKZF2-mNeonGreen reporter, 24 hours incubation
Sequence (Q9UKS7 whole entry): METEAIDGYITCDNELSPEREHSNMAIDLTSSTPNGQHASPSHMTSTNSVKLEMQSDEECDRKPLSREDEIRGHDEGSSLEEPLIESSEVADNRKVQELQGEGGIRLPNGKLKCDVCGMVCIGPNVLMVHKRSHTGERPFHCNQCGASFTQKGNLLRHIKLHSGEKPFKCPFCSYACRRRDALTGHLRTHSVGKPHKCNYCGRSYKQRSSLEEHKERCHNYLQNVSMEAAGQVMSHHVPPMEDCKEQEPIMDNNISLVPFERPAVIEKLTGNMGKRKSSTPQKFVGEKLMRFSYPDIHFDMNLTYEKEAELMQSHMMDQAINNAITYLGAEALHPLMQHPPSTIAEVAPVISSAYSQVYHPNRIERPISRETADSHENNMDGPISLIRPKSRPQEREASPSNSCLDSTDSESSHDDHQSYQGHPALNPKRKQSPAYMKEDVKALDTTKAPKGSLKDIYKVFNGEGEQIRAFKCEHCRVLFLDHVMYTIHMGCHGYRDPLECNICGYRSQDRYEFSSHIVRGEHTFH
Sequence (Q96SW2 whole entry, further chain): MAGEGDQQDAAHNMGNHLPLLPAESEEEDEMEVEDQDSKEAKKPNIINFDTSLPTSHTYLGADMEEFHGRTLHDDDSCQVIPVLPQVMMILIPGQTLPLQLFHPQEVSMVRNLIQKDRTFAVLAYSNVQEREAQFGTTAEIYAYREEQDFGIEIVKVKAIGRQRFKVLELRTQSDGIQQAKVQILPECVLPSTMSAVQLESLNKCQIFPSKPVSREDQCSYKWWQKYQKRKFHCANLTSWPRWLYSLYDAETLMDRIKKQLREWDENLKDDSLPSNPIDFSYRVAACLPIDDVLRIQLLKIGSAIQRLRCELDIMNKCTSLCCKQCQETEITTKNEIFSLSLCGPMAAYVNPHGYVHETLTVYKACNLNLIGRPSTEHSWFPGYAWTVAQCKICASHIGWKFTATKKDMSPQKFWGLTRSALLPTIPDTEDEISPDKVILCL
Sequence (Q16531 whole entry partner): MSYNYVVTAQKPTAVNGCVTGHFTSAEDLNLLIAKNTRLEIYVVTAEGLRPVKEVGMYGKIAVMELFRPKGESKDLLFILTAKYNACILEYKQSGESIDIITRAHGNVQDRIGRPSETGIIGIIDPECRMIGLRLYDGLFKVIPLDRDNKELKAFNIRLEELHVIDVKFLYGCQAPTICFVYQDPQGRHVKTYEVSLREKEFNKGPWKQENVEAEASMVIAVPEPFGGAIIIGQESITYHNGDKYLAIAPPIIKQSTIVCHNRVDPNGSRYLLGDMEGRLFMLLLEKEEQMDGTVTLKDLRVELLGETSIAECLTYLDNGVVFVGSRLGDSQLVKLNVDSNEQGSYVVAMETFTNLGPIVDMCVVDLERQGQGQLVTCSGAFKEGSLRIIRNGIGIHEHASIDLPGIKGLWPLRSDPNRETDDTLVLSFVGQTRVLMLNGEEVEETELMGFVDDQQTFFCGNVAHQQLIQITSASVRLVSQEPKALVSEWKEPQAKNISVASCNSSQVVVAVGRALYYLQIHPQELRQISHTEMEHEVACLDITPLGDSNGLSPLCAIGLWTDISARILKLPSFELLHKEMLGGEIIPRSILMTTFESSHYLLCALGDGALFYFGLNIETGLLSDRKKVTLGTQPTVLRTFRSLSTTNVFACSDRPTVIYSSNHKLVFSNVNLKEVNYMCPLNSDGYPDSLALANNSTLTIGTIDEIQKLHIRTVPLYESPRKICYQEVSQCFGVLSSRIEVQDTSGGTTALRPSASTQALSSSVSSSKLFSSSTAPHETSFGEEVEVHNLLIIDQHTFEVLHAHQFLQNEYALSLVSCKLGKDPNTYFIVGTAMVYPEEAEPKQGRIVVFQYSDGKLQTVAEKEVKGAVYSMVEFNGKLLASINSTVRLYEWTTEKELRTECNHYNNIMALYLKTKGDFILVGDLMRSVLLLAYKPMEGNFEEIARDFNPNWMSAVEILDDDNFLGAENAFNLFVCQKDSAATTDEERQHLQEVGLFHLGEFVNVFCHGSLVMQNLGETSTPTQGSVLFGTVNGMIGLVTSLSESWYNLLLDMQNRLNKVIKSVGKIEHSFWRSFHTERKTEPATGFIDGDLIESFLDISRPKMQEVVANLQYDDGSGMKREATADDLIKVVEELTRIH
readout.kind: DC50 (nM)

Take a look at these entries with their results.
molecule	readout.unit	DC50
O=C1CCC(N2Cc3cc(OC4CCCCC4N4CC(c5ccnc6[nH]ccc56)C4)ccc3C2=O)C(=O)N1 (stereo not drawn) [Compound 199-B]	nM	14
Cc1cnccc1C1CN([C@H]2CCCC[C@@H]2Oc2ccc3c(c2)CN(C2CCC(=O)NC2=O)C3=O)C1 (single isomer, unassigned) [Compound 112-B]	nM	12
O=C1CCC(N2Cc3cc(OC4CCCC4N4CC(c5c[nH]c6ccccc56)C4)ccc3C2=O)C(=O)N1 (stereo not drawn) [Compound 181-B]	nM	34
Cc1cnc(C2CN([C@H]3CCCC[C@@H]3Oc3ccc4c(c3)CN(C3CCC(=O)NC3=O)C4=O)C2)nc1 (mixture of isomers) [Compound 189-B]	nM	123
O=C1CCC(N2Cc3cc(O[C@@H]4CCCC[C@@H]4N4CC(c5ccc6ccccc6n5)C4)ccc3C2=O)C(=O)N1 (single isomer, unassigned) [Compound 91-B]	nM	29

P = O=C1CCC(N2Cc3cc(O[C@H]4CCCC[C@@H]4N4CC(c5ccc(C(F)(F)F)nc5)C4)ccc3C2=O)C(=O)N1 (single isomer, unassigned) [Compound 127-B]
Q = O=C1CCC(N2Cc3cc(O[C@H]4CCCC[C@@H]4N4CC(c5cncc(Cl)c5)C4)ccc3C2=O)C(=O)N1 (single isomer, unassigned) [Compound 117-B]
Param pair: P , Q . Output: the one whose DC50 is numerically greater. State the label of the item chosen.
Q
(Q: 25 nM, P: 6 nM)

I = O=C1CCC(N2Cc3cc(O[C@H]4CCCC[C@@H]4N4CC(c5ccc6c(c5)OCCO6)C4)ccc3C2=O)C(=O)N1 (stereo partly drawn) [Compound 58-A]
II = O=C1CCC(N2Cc3cc(O[C@H]4CCCC[C@@H]4N4CC(c5ncc(Br)cn5)C4)ccc3C2=O)C(=O)N1 (mixture of isomers) [Compound 137-B]
Param pair: I , II . Output: the one whose DC50 is numerically greater. State the label of the item chosen.
II

Recorded values, source patent US20250100996A1.
